biological target: recombinant human kinase domain of JAK1 (Homo sapiens (Human)); experiment: JAK Caliper enzyme assay at 1 mM ATP (JAK1); assay type: biochemical; details: 1 mM ATP; read-out: IC50 (nM) JAK1
Known log10(IC50) of a selection of molecules
Transform log10 | Measure IC50 | Unit nM

Below: 3 molecules and their reported log10(IC50).
Task: Consider the molecule "CCNC(=O)c1ccc(Nc2nccc(N3C[C@H]4CC[C@@H](C3)N4C(=O)CC#N)n2)cc1" and give its measured log10(IC50).
Output: 1.61

Task: What value of log10(IC50) has been recorded for this entry: "CC(C)NC(=O)N1[C@@H]2CC[C@H]1CN(c1ccnc(Nc3cnn(C)c3)n1)C2"
Output: 2.22

Task: Please look up its log10(IC50): "CCNC(=O)N1[C@@H]2CC[C@H]1CN(c1ccnc(Nc3cnc(C(=O)NC)c(F)c3)n1)C2"
Output: 2.53

Continuing:
Task: Suppose we examine the molecule "Cn1cc(Nc2nccc(N3C[C@H]4CC[C@@H](C3)N4C(=O)[C@@H]3C[C@@H]3C#N)n2)cn1" ; what log10(IC50) value has been reported?
Output: 2.67

Task: Which log10(IC50) is reported for this molecule? CC(CC#N)N1[C@@H]2CC[C@H]1CN(c1ccnc(Nc3cn[nH]c3)n1)C2 (stereo partly drawn)
Output: 2.13

Task: # input molecule: "CCNC(=O)N1[C@@H]2CC[C@H]1CN(c1ccnc(Nc3cnc(C(=O)NC)c(Cl)c3)n1)C2" ; wanted: its log10(IC50)
Output: 2.66

Task: State the recorded log10(IC50) for this entry: Cn1cc(Nc2nccc(N3C[C@H]4CC[C@@H](C3)N4C3CC(C#N)C3)n2)cn1 (stereo partly drawn)
Output: 1.89

Task: Recorded log10(IC50) for CNC(=O)c1ncc(Nc2nccc(N3C[C@H]4CC[C@@H](C3)N4C[C@@H]3CC3(F)F)n2)cc1C (single isomer, unassigned) , please?
Output: 2.62

###

molecular target: recombinant human kinase domain of JAK1 (Homo sapiens (Human)); assay: JAK Caliper enzyme assay at 1 mM ATP (JAK1); format: biochemical; conditions: 1 mM ATP; read-out: IC50 (nM) JAK1
Criterion: IC50 strictly under 700 nM. Met: class 1. Not met: class 0.

Some solved cases for reference:
Task: IC50 strictly < 700 nM for this compound? "Cn1cc(Nc2nccc(N3C[C@H]4CC[C@@H](C3)N4C[C@H]3CC3(F)F)n2)cn1"
Output: class 1

Task: Lab note: confirm whether the reported IC50 for this compound is below 700 nM, equality not counting. compound: "CCNC(=O)c1ccc(Nc2nccc(N3CC4CC(C3)N4C(=O)C(F)(F)F)n2)cc1C"
Output: class 0

Task: Does this compound meet the criterion IC50 < 700 nM? "O=C([C@@H]1CC1(F)F)N1[C@@H]2CC[C@H]1CN(c1ccnc(Nc3cnc(CO)c(F)c3)n1)C2"
Output: class 1

Task: For "Cn1cc(Nc2nccc(N3C[C@H]4CC[C@@H](C3)N4C(=O)NCCC#N)n2)cn1" , is the recorded IC50 below the cut-off of 700 nM?
Output: class 1

Task: Bench note: check whether "CNC(=O)c1ncc(Nc2nccc(N3C[C@H]4CC[C@@H](C3)N4C[C@H]3CC3(F)F)n2)cc1C" shows IC50 below 700 nM
Output: class 1

As a next step, examine the compound that follows.
Task: Lab note: confirm whether the reported IC50 for this compound is below 700 nM, equality not counting. compound: C[C@H](CO)c1ccc(Nc2ncc(F)c(N3C[C@H]4[C@@H](C)[C@@]4(NC(=O)C4CC4)C3)n2)cn1 (single isomer, unassigned)
Output: class 0

###

biological target: recombinant human kinase domain of JAK1 (Homo sapiens (Human), UniProt P23458); assay: JAK Caliper enzyme assay at 1 mM ATP (JAK1); assay type: biochemical; settings: 1 mM ATP; read-out: IC50 (nM) JAK1;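 also: microfluidic mobility-shift readout of synthetic fluorescent peptide phosphorylation, percent product converted from peak height, inhibition relative to DMSO-only wells as uninhibited baseline, room temperature incubation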
Sequence (P23458 875-1153): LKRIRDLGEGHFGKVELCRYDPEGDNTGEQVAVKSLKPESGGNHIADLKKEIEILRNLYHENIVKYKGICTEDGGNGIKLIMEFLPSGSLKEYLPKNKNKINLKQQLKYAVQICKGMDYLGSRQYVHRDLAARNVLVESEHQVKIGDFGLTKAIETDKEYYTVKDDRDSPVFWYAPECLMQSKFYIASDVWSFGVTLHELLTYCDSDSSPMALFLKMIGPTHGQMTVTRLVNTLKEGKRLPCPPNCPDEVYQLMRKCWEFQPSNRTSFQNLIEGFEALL
Below, each entry is listed with its recorded IC50.
Report the figure in nM without appending any unit label.

Recorded IC50, per entry:
Task: Record request: IC50 value, item CNC(=O)c1ncc(Nc2nccc(N3C[C@H]4CC[C@@H](C3)N4C(=O)[C@@H]3CC3(F)F)n2)cc1C (single isomer, unassigned)
Output: 62

Task: Given "O=C([C@@H]1CC1(F)F)N1[C@@H]2CC[C@H]1CN(c1ccnc(Nc3cnc(CCO)c(F)c3)n1)C2" , state its recorded IC50.
Output: 463

Task: Quick one: IC50 of C[C@@H](CO)c1ccc(Nc2nccc(N3C[C@H]4CC[C@@H](C3)N4C(=O)[C@@H]3CC3(F)F)n2)cn1 (single isomer, unassigned) ?
Output: 139

Task: Quick one: IC50 of "N#CCCN1[C@@H]2CC[C@H]1CN(c1ccnc(Nc3cn[nH]c3)n1)C2" ?
Output: 38

Task: IC50 for Cn1cc(Nc2nccc(N3C[C@H]4CC[C@@H](C3)N4C[C@H]3C[C@@H]3C#N)n2)cn1 [Example 69] ?
Output: 1100

Task: Using the record for "CNC(=O)c1ncc(Nc2nccc(N3C[C@H]4CC[C@@H](C3)N4Cc3ccno3)n2)cc1C" , report its IC50.
Output: 226

Task: Would you kindly share the measured IC50 for "CNC(=O)c1ncc(Nc2ncc(F)c(N3C[C@H]4[C@@H](C)[C@@]4(NC(=O)C4CC4)C3)n2)cc1C" ?
Output: 965

Task: Please give the measured IC50 for this compound: "CNC(=O)c1ncc(Nc2nccc(N3C[C@H]4CC[C@@H](C3)N4C(=O)[C@@H]3CC3(F)F)n2)cc1Cl"
Output: 171

Next:
Task: Which IC50 is listed for "CNC(=O)c1cc(Nc2nccc(N3C[C@H]4CC[C@@H](C3)N4C(=O)[C@@H]3CC3(F)F)n2)cc(C)n1" ?
Output: 369

Task: Reported IC50 for "CNC(=O)c1ncc(Nc2nccc(N3C[C@H]4CC[C@@H](C3)N4C(=O)NCC#N)n2)cc1C" : what is it?
Output: 17
